Taken from patent US20130096100A1.

Assign melting point to each entry below.

Please report the recorded melting point for COc1cc(N2CCC(N3CCN(C)CC3)CC2)ccc1Nc1ncnc(Nc2ccccc2S(=O)(=O)N(C)C(C)C)n1 .
162 to 164 °C

Recorded melting point for COc1cc(N2CCC(N3CCN(C)CC3)CC2)ccc1Nc1ncnc(Nc2ccccc2S(=O)(=O)NC(C)C)n1 , please?
185 to 189 °C

# query: melting point of entry COc1cc(N2CCN(C3CCN(C)CC3)CC2)ccc1Nc1nc(Nc2ccccc2S(=O)(=O)C(C)C)c2ccccc2n1
109 to 114 °C

So what's the measured melting point for this one? COc1cc(N2CCC(N3CCN(C)CC3)CC2)ccc1Nc1ncnc(Nc2ccccc2S(=O)(=O)N(C)C)n1
167 to 170 °C

Reported melting point for COc1cc(N2CCC3(CCCCN3C)CC2)ccc1Nc1ncnc(Nc2ccccc2S(=O)(=O)C(C)C)n1 : what is it?
132 to 135 °C
